Entries and their measured Decreased fold of binding to ligand after Conjugating with S48 follow.
Target: T1, IL-10R2-Fc/His (UniProt Q08334 20-220, limits assumed)
T1 sequence (looked up): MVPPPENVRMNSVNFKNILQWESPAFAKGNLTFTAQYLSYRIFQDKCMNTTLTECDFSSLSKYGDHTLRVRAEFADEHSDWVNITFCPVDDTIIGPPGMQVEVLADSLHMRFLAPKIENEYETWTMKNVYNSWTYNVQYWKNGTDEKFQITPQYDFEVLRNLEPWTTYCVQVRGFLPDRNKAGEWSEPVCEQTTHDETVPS
Assay: ELISA, IL-10R2-Fc/His coated
VALUE_KIND: Decreased fold of binding to ligand after Conjugating with S48 (fold)

BINDER	UNIT_SPEC	RECORDED_MEASUREMENT
IL-10 Asn18Cys-S48 (ligand, human, UniProt P22301 19-178, looked up, S48 on Cys 18, mature) SPGQGTQSENSCTHFPGCLPNMLRDLRDAFSRVKTFFQMKDQLDNLLLKESLLEDFKGYLGCQALSEMIQFYLEEVMPQAENQDPDIKAHVNSLGENLKTLRLRLRRCHRFLPCENKSKAVEQVKNAFNKLQEKGIYKAMSEFDIFINYIEAYMTMKIRN	fold	4
IL-10 Ile87Cys-S48 (ligand, human, UniProt P22301 19-178, looked up, S48 on Cys 87, mature) SPGQGTQSENSCTHFPGNLPNMLRDLRDAFSRVKTFFQMKDQLDNLLLKESLLEDFKGYLGCQALSEMIQFYLEEVMPQAENQDPDCKAHVNSLGENLKTLRLRLRRCHRFLPCENKSKAVEQVKNAFNKLQEKGIYKAMSEFDIFINYIEAYMTMKIRN	fold	4
IL-10 Arg104Cys-S48 (ligand, human, UniProt P22301 19-178, looked up, S48 on Cys 104, mature) SPGQGTQSENSCTHFPGNLPNMLRDLRDAFSRVKTFFQMKDQLDNLLLKESLLEDFKGYLGCQALSEMIQFYLEEVMPQAENQDPDIKAHVNSLGENLKTLRLCLRRCHRFLPCENKSKAVEQVKNAFNKLQEKGIYKAMSEFDIFINYIEAYMTMKIRN	fold	6
